biological target: CRTH2 (Homo sapiens (Human)); test: CRTH2 receptor binding inhibitory activity ([3H]-PGD2 displacement, membranes of CRTH2-expressing K562 cell); details: [3H]-PGD2 displacement, membrane of CRTH2-expressing K562 cell; read-out: Ki
Sequence (Q9Y5Y4 whole entry): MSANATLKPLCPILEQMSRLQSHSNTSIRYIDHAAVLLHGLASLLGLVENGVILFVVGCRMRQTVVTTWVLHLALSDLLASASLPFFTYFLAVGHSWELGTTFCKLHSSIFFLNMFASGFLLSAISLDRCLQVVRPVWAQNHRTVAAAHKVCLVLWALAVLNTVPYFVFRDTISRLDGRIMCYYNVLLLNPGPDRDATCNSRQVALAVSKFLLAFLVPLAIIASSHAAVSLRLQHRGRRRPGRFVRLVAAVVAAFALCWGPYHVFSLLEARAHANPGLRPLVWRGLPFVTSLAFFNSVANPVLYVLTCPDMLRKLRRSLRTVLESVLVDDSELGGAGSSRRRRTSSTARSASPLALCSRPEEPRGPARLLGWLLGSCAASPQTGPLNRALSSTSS
pKi: −log10 of the molar value.
MEASURED ATTRIBUTE: pKi

>  <COMPOUND>
CO[C@@H]1CN(S(=O)(=O)c2ccc(OC(C)C)cc2)C[C@@H]1n1nc(CC(=O)O)c2ccc(F)cc21

>  <TESTED TARGET>
CRTH2 (Homo sapiens (Human))

>  <MEASURED ATTRIBUTE>
pKi

>  <VALUE MEASURED>
6.85

$$$$
>  <COMPOUND>
CNC(=O)[C@@H]1C[C@@H](n2nc(CC(=O)O)c3ccc(F)cc32)CN1S(=O)(=O)c1ccc(OC(C)C)cc1

>  <TESTED TARGET>
CRTH2 (Homo sapiens (Human))

>  <MEASURED ATTRIBUTE>
pKi

>  <VALUE MEASURED>
6.49

$$$$
>  <COMPOUND>
CCOc1ncc(S(=O)(=O)N2C[C@@H](C)[C@@H](n3nc(CC(=O)O)c4ccc(F)cc43)C2)s1

>  <TESTED TARGET>
CRTH2 (Homo sapiens (Human))

>  <MEASURED ATTRIBUTE>
pKi

>  <VALUE MEASURED>
7.92

$$$$
>  <COMPOUND>
CCOc1ccc(S(=O)(=O)N2C[C@@H](C)[C@@H](n3cc(CC(=O)O)c4ccc(-c5ncco5)cc43)C2)cc1

>  <TESTED TARGET>
CRTH2 (Homo sapiens (Human))

>  <MEASURED ATTRIBUTE>
pKi

>  <VALUE MEASURED>
8.00

$$$$
>  <COMPOUND>
CCOc1ccc(S(=O)(=O)N2C[C@@H](C)[C@@H](n3nc(CC(=O)O)c4ccccc43)C2)c(N)c1

>  <TESTED TARGET>
CRTH2 (Homo sapiens (Human))

>  <MEASURED ATTRIBUTE>
pKi

>  <VALUE MEASURED>
7.55

$$$$

I = CCOc1ccc(S(=O)(=O)N2C[C@@H](C)[C@@H](n3nc(CC(=O)O)c4ccc(N5CCCC5)cc43)C2)cn1
II = CC(C)Oc1ccc(S(=O)(=O)N2C[C@H](n3nc(CC(=O)O)c4ccc(F)cc43)C[C@]2(C)C#N)cc1
III = CCOc1ccc(S(=O)(=O)N2C[C@@H](C)[C@@H](n3nc(CC(=O)O)c4ccccc43)C2)cn1
Incoming: Please give the order of these compounds when sorted by pKi, largest value leading. Please express your ranking as an ordered list of the labels.
Outgoing: II, III, I
(II: 7.80, III: 7.43, I: 7.00)

A = Cc1ccc2c(CC(=O)O)nn([C@H]3CN(S(=O)(=O)c4ccc(OC(C)C)cc4)C[C@H]3C)c2c1
B = C[C@@H]1CN(S(=O)(=O)c2ccc(OC(F)(F)F)cc2)C[C@@H]1n1nc(CC(=O)O)c2ccc(Cl)cc21
C = C[C@H]1C[C@@H](n2nc(CC(=O)O)c3ccc(F)cc32)CCN1S(=O)(=O)c1ccc(F)cc1
Incoming: Rank the 3 compounds: largest pKi first, smallest last. # output: labels, in the requested order
Outgoing: A, B, C

1 = CCOc1ccc(S(=O)(=O)N2C[C@@H](C)[C@@H](n3nc(CC(=O)O)c4ccc(C5=CCCCC5)cc43)C2)cc1
2 = CC(C)Oc1ccc(S(=O)(=O)N2C[C@@H](C)[C@@H](n3nc(CC(=O)O)c4ccc(F)cc43)C2)cn1 [Compound I-123]
Incoming: Name the one with the greater pKi value, either 1 or 2 as given. Kindly state the label of the option you pick.
Outgoing: 2
